Structures can show the parent of a compound that is named as a salt.

| compound | melting point |
| --- | --- |
| CN1CCc2[nH]c3ccc(S(=O)(=O)c4ccccc4)cc3c2CC1 | 150 °C (dec.) |
| O=S(=O)(c1ccc(F)cc1)c1ccc2[nH]c3c(c2c1)CCNCC3 [Example 2] | 168 °C (dec.) |
| Cl.O=S(=O)(c1ccc(F)c(F)c1)c1ccc2[nH]c3c(c2c1)CCNCC3 | 320 °C (dec.) |
| O=S(=O)(c1cccc(F)c1)c1ccc2[nH]c3c(c2c1)CCNCC3 [Example 5] | 153 to 156 °C |
| Cl.O=S(=O)(c1cc(F)cc(F)c1)c1ccc2[nH]c3c(c2c1)CCNCC3 | 313 to 315 °C (dec.) |
| CN1CCc2c(n(C)c3ccc(S(=O)(=O)c4ccccc4)cc23)CC1 [Example 18] | 283 to 286 °C |
| Cn1c2c(c3cc(S(=O)(=O)c4ccc(OCCO)cc4)ccc31)CCNCC2 (as salt: hydrochloride) [Example 17] | 285 to 287 °C (dec.) |
| CCn1c2c(c3cc(S(=O)(=O)c4ccccc4)ccc31)CCNCC2 [Example 8] | 224 °C (dec.) |
| CCn1c2c(c3cc(S(=O)(=O)c4ccc(F)cc4)ccc31)CCNCC2.Cl | 227 to 233 °C (dec.) |
| COc1cccc(S(=O)(=O)c2ccc3[nH]c4c(c3c2)CCNCC4)c1.Cl | 232 to 235 °C (dec.) |
